# GI50 per record follows
system: HOP-62; test: NCI tumour cell line growth inhibition, 48 h
The source made the active and inactive calls. Cut-off read from the data, not from the text of the source: active = GI50 up to about 1.1 µM and inactive = higher.

# molecule, GI50
measured = [
    ("COc1ccc(C2Cc3cc(OC)c(OC)c(OC)c3C2)cc1 (stereo not drawn)", "97.5 µM (inactive)"),
]

Q: // returns reported GI50 for input CCCN(CCc1ccc(-c2ccccc2)cc1)CCc1ccc2nn[nH]c2c1
Ans: 12.5 µM (inactive)

Q: Entry O=C1C[C@@H](Sc2ccccc2)C2(OCCO2)C2ON3CCCC[C@H]3[C@H]12 (stereo partly drawn) please
Ans: 16.5 µM (inactive)

Q: Entry CCOc1ccc(/N=C\c2cc(OC)c(OC)c(OC)c2)cc1 please
Ans: > 100 µM (inactive)

Q: Entry O=[N+]([O-])c1ccc(C2N3CCCCC3[C@@H]3c4[nH]c5ccccc5c4CCN23)cc1 (stereo partly drawn) please
Ans: 19.5 µM (inactive)

Q: Entry COc1ccc(/C=C/C(=O)C(C)(C)CN2CCCCC2)cc1 please
Ans: 32.2 µM (inactive)

Q: Entry COc1cc(C2c3cc4c(cc3C(O)C3CCC(=O)N23)OCO4)cc(OC)c1OC (stereo not drawn) please
Ans: 39.2 µM (inactive)

Q: Entry C/C=C(\C)C(O)C(C)C(O)C/C=C(C)/C=C(\C)C/C(C)=C/C/C=C(\C)C(O)C(C)c1ccc(CCC)c(=O)o1 (stereo not drawn) please
Ans: 16.2 µM (inactive)

The measurements presented in this section are drawn from ChEMBL document CHEMBL1201862.
